assay: VP16 transactivation reporter inhibitors, counter-screen for LRH-1 inverse agonist project, cell-based, luminescence, high throughput (AID 651615); conditions: Gal4-VP16 luciferase reporter cells, at 3.6 µM
The source made the active and inactive calls. No stated cut-off is given here; in the data, active means inhibition above about 33%; inactive means the rest.
Can you answer with just one of these options? yes (1) (active), no (0) (inactive)

Assay outcome for "CC(=O)c1ccc(NC(=O)CSC2=NS(=O)(=O)c3cc(Cl)ccc3N2)cc1" : what was it?
no (0)

Short answer needed: outcome of this test for CCC(C)Nc1nc(-c2ccccn2)nc2ccccc12 (configuration not stated) ?
yes (1)

Kindly provide the recorded test outcome for the following molecule: "CS(=O)(=O)c1ccc(Cl)c(NC(=O)Nc2ccccc2)c1"
no (0)

Dear all, I need the recorded test outcome for "Cc1ccc(C)c(NC(=O)CSc2nc3[nH]ncc3c(=O)[nH]2)c1" , thank you.
no (0)

What did the test return for "COC(=O)c1ccc(NC(=O)CN2CCN(S(=O)(=O)c3cc(Cl)ccc3OC)CC2)cc1" ?
no (0)

Called result for "CC[n+]1c(C=C2C=C(C)OC(C)=C2)sc2ccccc21"
yes (1)

What was the test verdict on "Cc1ccccc1N=C1NC(=O)/C(=C/c2cccnc2)S1" ?
no (0)

Assay result, entry "Cc1ccccc1Nc1nc(Cl)c(C=O)s1" — outcome?
no (0)

Query: recorded result category for "C[C@@H]1C[C@@H]2O[C@H]2/C=C\C=C\C(=O)Cc2c(Cl)c(O)cc(O)c2C(=O)O1" in this test
yes (1)

Recorded call for "CCN(CC)c1ccc(/C=N/NC(=O)c2cccc(S(=O)(=O)N3CCOCC3)c2)c(O)c1" ?
yes (1)

Query: recorded result category for "OC[C@@H]1CN(Cc2ccc(-c3ccccc3)cc2)C[C@H](n2cnc3c(NCc4ccco4)ncnc32)O1" in this test
yes (1)

Could you kindly confirm the outcome this assay logged for "CCCCOc1ccc(Br)cc1CSC(=N)N" ?
yes (1)

Field: outcome | Entry: "O=C(N/N=C/c1ccc(Sc2ccccn2)o1)c1cccc([N+](=O)[O-])c1"
no (0)

Outcome? "COc1cc(CNc2ccc(CNc3ncn[nH]3)cc2)ccc1OCC(=O)NC(C)(C)C"
no (0)

What classification did "CCOc1ccc(NC(=O)COC(=O)CC2CCCCC2)cc1" end up with in this test?
no (0)

Tell me the recorded outcome of this test for "Oc1ccc(CCNc2ncnc3ccc(Cl)cc23)cc1" .
yes (1)

Hi, sorry to bother you, what did the test record for "COCc1cc(C)nc(SCC(=O)Nc2cc3c(cc2C#N)OCO3)c1C#N" ?
no (0)

I'd appreciate the recorded outcome for COc1cccc(C(C)(O)c2nc(-c3ccc(S(C)(=O)=O)cc3)cs2)c1 (configuration not stated) from this test.
no (0)

Each molecule tested received a call. Report the one for "Nc1nc2ccccc2cc1C(=O)NCc1ccc(-c2ccccc2)cc1" .
yes (1)

Give the logged outcome of this assay for the following molecule: "Cc1cc(OCC(=O)NC2CC2)c2c(C)cc(=O)oc2c1"
no (0)

Each molecule tested received a call. Report the one for "COc1ccc(N2C(=O)C(Cl)=C(N3CCOCC3)C2=O)cc1" .
no (0)

Please indicate how the test categorized "Cc1cc([N+](=O)[O-])nn1Cc1ccc(C(=O)N/N=C/c2ccc(O)cc2O)cc1" .
yes (1)
